Measured values drawn from the supplement of paper PMC7411054 for this set.

Tested on: WPMY1-ACTB-RAB5A
Test: phenotypically active (imaging signature differs from DMSO and reproducible) at any of 0.3-9 uM (binary (1 = active, 0 = inactive)); higher = active
Details: treatment time: 24 h
Counter-ions that a name gives are not always drawn.
Choose the fitting class; nothing outside active, inactive is accepted.

Q: Dear all, I need the recorded test outcome for `C[C@H]1CCCC=C[C@@H]2C[C@H](O)C[C@H]2[C@H](O)C=CC(=O)O1` , thank you.
Result: active

Q: Dear all, I need the recorded test outcome for `Cc1sc2c(c1C)C(c1ccc(Cl)cc1)=N[C@@H](CC(N)=O)c1nnc(C)n1-2` , thank you.
Result: active

Q: Dear all, I need the recorded test outcome for C/C=C1\CN2CC[C@]34c5cc(OC)ccc5N5C(=O)C(O)OC[C@@H]([C@H]53)[C@H]1C[C@H]24 (some centres undefined) , thank you.
Result: inactive

Q: Dear all, I need the recorded test outcome for CN1[C@@H]2C[C@@H](OC(=O)[C@H](CO)c3ccccc3)C[C@H]1[C@@H]1O[C@@H]12 [Scopolamine hydrobromide] , thank you.
Result: inactive
